test: amyloid nucleation score (Sup35N fusion, yeast selection) (log enrichment); library NNK2; higher = more nucleation; inactive = no reads after selection;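 note: zero at mode of non-aggregating sequences after 7 days selection at 30°C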
Class true (1): amyloid nucleation score at least 2. Class false (0): amyloid nucleation score below 2.

1. RCRPLCI :: false (0)
2. YRMAAVIYIYIIRFSGSCMW :: false (0)
3. YVENTGASCFGAYK :: true (1)
4. FIKVFCSLRVDNQVRYRKRL :: true (1)
5. TNIYLGMIVRVHLLFLMELA :: false (0)
6. VNGHLNFAS :: false (0)
7. YNSTLKFLSKLKLVNIIGTV :: false (0)
8. RVFLSGSWSTHGNFCRLRNV :: false (0)
9. SVCLSPYLSLNYFYWWNSKR :: true (1)
10. EPKFCGMDNHEL :: true (1)
11. FGICLVMRFLWYESSTPWED :: false (0)
12. NGCSYLERVYVVCYDDMAFG :: false (0)
13. TLDGMQMSWFRNGV :: true (1)
14. MYRVLAICNRTVRKG :: false (0)
15. GLDITIGEA :: false (0)
16. SLGIVNSHIFAMWTFSSMGA :: true (1)
17. LGPLVYFLFVNIPNQGFFLC :: false (0)
18. CPMCTFLCCLAFY :: true (1)
19. CRSCVVSYCGCEYLESLGGK :: false (0)
20. RSSSCSNVMMVE :: false (0)
21. GVSWTFFGEYFQPCSSMKVN :: false (0)
22. MDSILVNVYVVNW :: true (1)
23. VGGYDNLSILISTLQSSIFS :: false (0)
24. FIPEERDIWGYAPGNCIFFR :: false (0)
25. NIRWRGNPFPCIVRNSVGEI :: false (0)
26. YHRCMKGVRDFVKLVDDCML :: false (0)
27. IVYFGQVIIFMVMSNSVCSL :: false (0)
28. QIGNVFNRY :: false (0)
29. KYRTYPGVGIIGRVDSSLRT :: false (0)
30. WSNSYHRLILWRQCIFGLLV :: true (1)
31. YLKGNIKATVFTNSPMLV :: false (0)
32. FLVLIQRKAQGITLQREGTW :: true (1)
33. RGGRSVRTVNWPSYMMSVPD :: false (0)
34. TVLCTRRLAWRYRLHFFFQ :: true (1)

* * *

assay: amyloid nucleation score (Sup35N fusion, yeast selection) (log enrichment); library NNK2; higher = more nucleation; inactive = no reads after selection
Overview of recorded amyloid nucleation score for various substances
measured.metric: amyloid nucleation score

1. FFIESSMLWYWDLKRYPMTL :: -0.225
2. SKVNVVVDNMG :: -0.125
3. CKVSVDN :: 0.011
4. TGGTVMRVR :: 0.297
5. SELFQLIGILHSNLFGIYMF :: -0.427
6. IIHSLARFIC :: -0.594
7. CTWDFNDHFMLVQNNDEQLW :: 0.087
8. IINSANM :: 0.736
9. SSSWLCYTSFWYVNHSRRSL :: 8.05
10. FICALTMYICSLY :: 7.39
11. GSVFSKHQGSFVFSLQQLGL :: -1.43
12. WDCGQTIYGFWDD :: -0.58
13. APGWKLMNTSPNRMSTLNLQ :: -0.633
14. ACLLLRSMFSKQRLTFR :: -0.38
15. IEYRNMLMLSCFNKYMDCLN :: 4.45
16. HIRFVDWNDTLIWVANGYI :: 0.049
17. RSVACVDDMHE :: 4.92
18. YNRNRCEVWRLFCLFCLLCF :: 2
19. GMADWNWFFPILFDPMGTGL :: -0.357
20. IPCTTSCVVQFCVTYWLDN :: 6.42
21. LEQFYCTMGSSFNMNGGMVI :: -0.436
